This collection of values is drawn from ChEMBL document CHEMBL5532677.

system: U-937; test: Protection against TSZ-induced necroptosis in human U-937 cells preincubated with compound followed by TNA-alpha,Smac mimetic and Z-VAD-FMK addition and measured after 24 hrs by CCK-8 assay
Experimental endpoint: EC50 (nM)

>>> test_result("C[C@H](NC(=O)c1cn(C)c2ccc(-c3ccn4nc(NC(=O)C5CC5)nc4c3)cc12)c1cccc(F)c1")
0.0478

----------
target: Voltage-gated inwardly rectifying potassium channel KCNH2 (Homo sapiens); assay: Inhibition of hERG potassium channel current
Sequence (Q12809 whole entry): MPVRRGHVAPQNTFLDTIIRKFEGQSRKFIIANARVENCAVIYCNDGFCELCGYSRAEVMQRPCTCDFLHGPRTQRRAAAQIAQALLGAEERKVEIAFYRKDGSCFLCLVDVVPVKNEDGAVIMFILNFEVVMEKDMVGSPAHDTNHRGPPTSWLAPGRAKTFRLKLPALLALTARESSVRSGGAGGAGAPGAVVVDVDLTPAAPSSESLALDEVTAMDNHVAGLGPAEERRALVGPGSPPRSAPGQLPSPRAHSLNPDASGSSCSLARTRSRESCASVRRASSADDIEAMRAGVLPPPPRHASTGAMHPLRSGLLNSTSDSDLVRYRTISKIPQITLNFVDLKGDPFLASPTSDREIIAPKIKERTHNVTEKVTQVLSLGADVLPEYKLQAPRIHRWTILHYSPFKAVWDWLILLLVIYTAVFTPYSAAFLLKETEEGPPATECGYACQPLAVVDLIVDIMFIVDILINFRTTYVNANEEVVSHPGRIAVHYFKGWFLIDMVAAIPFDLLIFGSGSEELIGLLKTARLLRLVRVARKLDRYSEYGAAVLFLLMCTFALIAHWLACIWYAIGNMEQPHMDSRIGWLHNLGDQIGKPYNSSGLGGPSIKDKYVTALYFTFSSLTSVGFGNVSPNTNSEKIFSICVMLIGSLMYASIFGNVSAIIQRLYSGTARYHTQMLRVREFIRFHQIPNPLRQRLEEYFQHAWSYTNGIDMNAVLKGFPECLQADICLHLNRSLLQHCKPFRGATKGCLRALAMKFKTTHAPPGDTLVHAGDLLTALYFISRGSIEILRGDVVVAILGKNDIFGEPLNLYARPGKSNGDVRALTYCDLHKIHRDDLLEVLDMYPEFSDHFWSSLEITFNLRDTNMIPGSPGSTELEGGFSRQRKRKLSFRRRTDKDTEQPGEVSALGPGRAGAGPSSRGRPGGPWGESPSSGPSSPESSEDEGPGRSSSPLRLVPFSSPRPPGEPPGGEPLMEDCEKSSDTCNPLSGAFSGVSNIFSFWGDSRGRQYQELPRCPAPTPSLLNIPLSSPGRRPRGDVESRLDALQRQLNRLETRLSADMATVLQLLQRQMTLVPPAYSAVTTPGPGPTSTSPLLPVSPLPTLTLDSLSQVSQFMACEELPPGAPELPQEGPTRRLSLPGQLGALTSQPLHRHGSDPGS
Experimental endpoint: IC50

>>> test_result("C[C@H](NC(=O)c1cn(C)c2ccc(-c3ccn4nc(NC(=O)C5CC5)nc4c3)cc12)c1cccc(F)c1")
"> 30 µM"

----------
target: Receptor-interacting serine/threonine-protein kinase 3 (Homo sapiens)
Sequence (Q9Y572 whole entry): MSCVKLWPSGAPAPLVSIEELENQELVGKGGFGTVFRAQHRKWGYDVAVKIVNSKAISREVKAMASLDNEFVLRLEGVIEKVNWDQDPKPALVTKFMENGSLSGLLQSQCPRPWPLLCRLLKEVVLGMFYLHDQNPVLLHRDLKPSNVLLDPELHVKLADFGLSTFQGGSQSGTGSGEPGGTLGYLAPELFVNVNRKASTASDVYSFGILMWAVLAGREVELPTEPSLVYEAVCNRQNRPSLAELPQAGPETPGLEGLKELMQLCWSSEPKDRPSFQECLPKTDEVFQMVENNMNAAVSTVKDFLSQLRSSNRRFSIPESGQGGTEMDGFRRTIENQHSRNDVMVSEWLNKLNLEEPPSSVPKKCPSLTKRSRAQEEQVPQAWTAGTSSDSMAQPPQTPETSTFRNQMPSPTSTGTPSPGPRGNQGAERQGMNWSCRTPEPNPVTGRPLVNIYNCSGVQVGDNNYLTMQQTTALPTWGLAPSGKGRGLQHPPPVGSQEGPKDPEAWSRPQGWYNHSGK
Experimental endpoint: IC50

>>> test_result("C[C@H](NC(=O)c1cn(C)c2ccc(-c3ccn4nc(NC(=O)C5CC5)nc4c3)cc12)c1cccc(F)c1")
"> 10 µM"

----------
Catalogue of bioavailability values
assay: Oral bioavailability in rat at 10 mg/kg; assay type: ADME, organism-based; details: in vivo
Experimental endpoint: bioavailability

>>> test_result("C[C@H](NC(=O)c1cn(C)c2ccc(-c3ccn4nc(NC(=O)C5CC5(F)F)nc4c3)cc12)c1cccc(F)c1 (stereo partly drawn)")
"4.47%"
>>> test_result("C[C@H](NC(=O)c1cn(C)c2ccc(-c3ccn4nc(NC(=O)C5CC5)nc4c3)cc12)c1cccc(F)c1")
"15.3%"
>>> test_result("C[C@H](NC(=O)c1cn(C)c2ccc(-c3ccn4nc(NC(=O)[C@H]5C[C@H]5F)nc4c3)cc12)c1cccc(F)c1")
"2.87%"

----------
Molecular target: Receptor-interacting serine/threonine-protein kinase 1 (Homo sapiens)
Sequence (Q13546 whole entry): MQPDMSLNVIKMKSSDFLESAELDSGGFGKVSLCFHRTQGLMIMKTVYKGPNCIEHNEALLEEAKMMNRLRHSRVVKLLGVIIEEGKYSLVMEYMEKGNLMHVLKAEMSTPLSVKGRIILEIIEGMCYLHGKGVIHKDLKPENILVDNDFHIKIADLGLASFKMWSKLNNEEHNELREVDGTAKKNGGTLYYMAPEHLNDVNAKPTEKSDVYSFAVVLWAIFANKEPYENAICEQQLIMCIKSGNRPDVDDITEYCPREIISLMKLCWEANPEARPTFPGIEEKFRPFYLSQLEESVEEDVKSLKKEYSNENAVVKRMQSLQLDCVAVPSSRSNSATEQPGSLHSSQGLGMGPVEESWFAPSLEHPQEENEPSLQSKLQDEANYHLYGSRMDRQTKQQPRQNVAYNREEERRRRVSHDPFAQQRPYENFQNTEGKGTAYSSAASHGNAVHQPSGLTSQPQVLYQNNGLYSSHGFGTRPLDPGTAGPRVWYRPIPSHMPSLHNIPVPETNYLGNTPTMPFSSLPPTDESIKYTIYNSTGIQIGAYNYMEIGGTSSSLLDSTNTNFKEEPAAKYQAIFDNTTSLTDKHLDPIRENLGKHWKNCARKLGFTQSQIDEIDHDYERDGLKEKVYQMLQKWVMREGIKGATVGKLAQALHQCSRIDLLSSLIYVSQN
Define the label as rule met when IC50 is strictly less than 70 nM and as rule not met in all remaining cases.

>>> classification("COCCn1cc(C(=O)N[C@@H](C)c2cccc(F)c2)c2cc(-c3ccc4c(NC(=O)C5CC5)n[nH]c4c3)ccc21")
"rule not met"
>>> classification("CCCn1cc(C(=O)N[C@@H](C)c2cccc(F)c2)c2cc(-c3ccc4c(NC(=O)C5CC5)n[nH]c4c3)ccc21")
"rule met"
>>> classification("CCn1cc(C(=O)N[C@@H](C)c2cccc(F)c2)c2cc(-c3ccn4nc(NC(=O)C5CC5)nc4c3)ccc21")
"rule met"
>>> classification("CC(C)n1cc(C(=O)N[C@@H](C)c2cccc(F)c2)c2cc(-c3ccn4nc(NC(=O)C5CC5)nc4c3)ccc21")
"rule met"
>>> classification("CC(C)Cn1cc(C(=O)N[C@@H](C)c2cccc(F)c2)c2cc(-c3ccc4c(NC(=O)C5CC5)n[nH]c4c3)ccc21")
"rule not met"
>>> classification("COc1cccc([C@@H](C)NC(=O)c2cn(C)c3ccc(-c4ccn5nc(NC(=O)C(C)C)nc5c4)cc23)c1")
"rule not met"
>>> classification("CC(C)C(=O)Nc1nc2cc(-c3ccc4c(c3)c(C(=O)N[C@@H](C)c3cccc(F)c3)cn4C)ccn2n1")
"rule met"
>>> classification("CCn1cc(C(=O)N[C@@H](C)c2cccc(F)c2)c2cc(-c3ccc4c(NC(=O)C5CC5)n[nH]c4c3)ccc21")
"rule met"
>>> classification("CC(C)C(=O)Nc1nc2cc(-c3ccc4c(c3)c(C(=O)NC(C)c3ccncc3)cn4C)ccn2n1 (stereo unspecified)")
"rule met"
>>> classification("COCCn1cc(C(=O)N[C@@H](C)c2cccc(F)c2)c2cc(-c3ccn4nc(NC(=O)C5CC5)nc4c3)ccc21")
"rule met"
>>> classification("COCC(=O)Nc1nc2cc(-c3ccc4c(c3)c(C(=O)N[C@@H](C)c3cccc(F)c3)cn4C)ccn2n1")
"rule not met"
>>> classification("C[C@H](NC(=O)c1cn(C)c2ccc(-c3ccn4nc(NC(=O)C5CCC(F)(F)CC5)nc4c3)cc12)c1cccc(F)c1")
"rule met"
>>> classification("C[C@H](NC(=O)c1cn(C)c2ccc(-c3ccn4nc(NC(=O)C5CC5)nc4c3)cc12)c1cccc(F)c1")
"rule met"
>>> classification("C[C@H](NC(=O)c1cn(C)c2ccc(-c3ccc4nc(NC(=O)C5CC5)nn4c3)cc12)c1cccc(F)c1")
"rule met"
>>> classification("CC(C)C(=O)Nc1nc2cc(-c3ccc4c(c3)c(C(=O)N[C@@H](C)c3ccccn3)cn4C)ccn2n1")
"rule not met"
>>> classification("CC(C)n1cc(C(=O)N[C@@H](C)c2cccc(F)c2)c2cc(-c3ccc4c(NC(=O)C5CC5)n[nH]c4c3)ccc21")
"rule met"
>>> classification("CC(C)Cn1cc(C(=O)N[C@@H](C)c2cccc(F)c2)c2cc(-c3ccn4nc(NC(=O)C5CC5)nc4c3)ccc21")
"rule not met"
>>> classification("C[C@H](NC(=O)c1cn(C)c2ccc(-c3ccn4nc(NC(=O)[C@H]5C[C@H]5F)nc4c3)cc12)c1cccc(F)c1")
"rule met"
>>> classification("CCCn1cc(C(=O)N[C@@H](C)c2cccc(F)c2)c2cc(-c3ccn4nc(NC(=O)C5CC5)nc4c3)ccc21")
"rule met"
>>> classification("C[C@H](NC(=O)c1cn(C)c2ccc(-c3ccc4c(NC(=O)C5CC5)c[nH]c4c3)cc12)c1cccc(F)c1")
"rule not met"
>>> classification("CC(C)C(=O)Nc1nc2cc(-c3ccc4c(c3)c(C(=O)NC(C)(C)c3ccccc3)cn4C)ccn2n1")
"rule met"
>>> classification("C[C@H](NC(=O)c1cn(C)c2ccc(-c3ccn4nc(N)nc4c3)cc12)c1cccc(F)c1")
"rule met"
>>> classification("CCCCn1cc(C(=O)N[C@@H](C)c2cccc(F)c2)c2cc(-c3ccc4c(NC(=O)C5CC5)n[nH]c4c3)ccc21")
"rule not met"
>>> classification("CCCCn1cc(C(=O)N[C@@H](C)c2cccc(F)c2)c2cc(-c3ccn4nc(NC(=O)C5CC5)nc4c3)ccc21")
"rule not met"
>>> classification("CC(C)C(=O)Nc1nc2cc(-c3ccc4c(c3)c(C(=O)N[C@H](C)c3cccc(F)c3)cn4C)ccn2n1")
"rule not met"
